Parameter Papp B-A avg (second block): see the listing below.
Tested on: Caco-2 cells
Assay: in vitro
Type: in vitro ADME, human
Details: Caco-2
Starred links: 1 amine or outer side, 2 acyl side, 3 side chain; linkers in the order of their positions; H or OH if unused. Non-standard residues stand in square brackets, D forms with d. Residues, ends and D or L forms follow the SMILES beside them. X1 = CC(C)C[C@H](NC(=S)[C@H](Cc1ccc(O)cc1)N[*:1])C(=O)[*:2]; X2 = CC(C)C[C@H](NC(=S)[C@@H](CC(C)C)N[*:1])C(=O)[*:2]; X3 = CC(C)C[C@H](N[*:1])C(=S)N[C@H](CC(C)C)C(=O)[*:2]; X4 = CC(C)C[C@H](N[*:1])C(=S)N1CCC[C@@H]1C(=O)[*:2]
I only need the number, in ×10⁻⁶ cm/s, no unit after it.

In the examples that follow, each entry is paired with its recorded Papp B-A avg (second block).
CC(C)C[C@@H]1NC(=O)[C@@H](CC(C)C)NC(=S)[C@H](CC(C)C)NC(=O)[C@H](Cc2ccc(O)cc2)NC(=O)[C@H]2CCCN2C(=O)[C@H](CC(C)C)NC1=O [10f] (cyclo(LL[dP]Y[X3])) :: 41.8
CC(C)C[C@@H]1NC(=O)[C@@H](CC(C)C)NC(=O)[C@H](CC(C)C)NC(=S)[C@H](Cc2ccc(O)cc2)NC(=O)[C@H]2CCCN2C(=O)[C@H](CC(C)C)NC1=O [10e] (cyclo(LL[dP][X1][dL])) :: 37.6
C[C@H]1O[C@@H](O[C@H]2[C@@H](O)C[C@H](O[C@H]3[C@@H](O)C[C@H](O[C@H]4CC[C@@]5(C)[C@H](CC[C@@H]6[C@@H]5C[C@@H](O)[C@]5(C)[C@@H](C7=CC(=O)OC7)CC[C@]65O)C4)O[C@@H]3C)O[C@@H]2C)C[C@H](O)[C@@H]1O [Digoxin, reference compound] :: 29.5

Name the value of Papp B-A avg (second block) reported for CC(C)C[C@@H]1NC(=O)[C@H](Cc2ccc(O)cc2)NC(=O)[C@H]2CCCN2C(=O)[C@H](CC(C)C)NC(=O)[C@H](CC(C)C)NC(=S)[C@@H](CC(C)C)NC1=O [10a] (cyclo(L[dP]YL[X2])) when tested on Caco-2 cells.
75.4

Name the value of Papp B-A avg (second block) reported for CC(C)NCC(O)COc1cccc2ccccc12 (stereo not drawn) [Propranolol, reference compound] when tested on Caco-2 cells.
34.1

Name the value of Papp B-A avg (second block) reported for CC(C)C[C@@H]1NC(=O)[C@H](Cc2ccc(O)cc2)NC(=O)[C@H]2CCCN2C(=S)[C@H](CC(C)C)NC(=O)[C@H](CC(C)C)NC(=O)[C@@H](CC(C)C)NC1=O [10c] (cyclo(L[dL]L[X4]Y)) when tested on Caco-2 cells.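 Note: Caco-2 monolayers used 21 days after seeding in HBSS-HEPES buffer with 1% DMSO, donor and acceptor levels quantified by LC-MS/MS, TEER checked before and after.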
5.3

###

Parameter remaining at 20 min: see the listing below.
Experiment: in vitro
Conditions: human, microsomes
Starred links: 1 amine or outer side, 2 acyl side, 3 side chain; linkers in the order of their positions; H or OH if unused. Non-standard residues stand in square brackets, D forms with d. Residues, ends and D or L forms follow the SMILES beside them. X3 = CC(C)C[C@H](N[*:1])C(=S)N[C@H](CC(C)C)C(=O)[*:2]; NMeY = CN[C@@H](Cc1ccc(O)cc1)C(=O)O
I only need the number, in %, no unit after it.

CC(C)C[C@@H]1NC(=O)[C@@H](CC(C)C)NC(=O)[C@H](CC(C)C)NC(=O)[C@H](Cc2ccc(O)cc2)N(C)C(=O)[C@H]2CCCN2C(=O)[C@H](CC(C)C)NC1=O [10j] (cyclo(LL[dP][NMeY]L[dL])) :: 73

For the next question, use this compound.
Give a short answer stating reported remaining at 20 min for CC(C)C[C@@H]1NC(=O)[C@@H](CC(C)C)NC(=S)[C@H](CC(C)C)NC(=O)[C@H](Cc2ccc(O)cc2)NC(=O)[C@H]2CCCN2C(=O)[C@H](CC(C)C)NC1=O [10f] (cyclo(LL[dP]Y[X3])) .
62
